Numbers sourced from paper PMC10397247.

Biological target: T1, P2-AA-1HAA-R
T1 chain: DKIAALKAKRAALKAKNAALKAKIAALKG
Experiment: two-hybrid library CCmax;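 note: natural log of median RNA to DNA barcode read ratio; higher means stronger binding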
Details: mean of both orientations
READOUT KIND: interaction score

1) DEIAALEAEEAALEAENAALEAEIAALEG [P1-AA-1HAA-E] = 1.9
2) DEIAALEAEKAALEAENAALEAEIAALEG [P1-AA-1HAA-K] = 1.56
3) DEIAALEAERAALEAENAALEAEIAALEG [P1-AA-1HAA-R] = 1.34
4) DEIAALEAEAAALEAENAALEAEIAALEG [P1-AA-1HAA-A] = 1.48
5) DEIAALEAEIAALEAENAALEAEIAALEG [P1-AA-1HAA-I] = 2.06
6) DEIAALEAEYAALEAENAALEAEIAALEG [P1-AA-1HAA-Y] = 1.52

1 = DEIAALEAETAALEAENAALEAEIAALEG [P1-AA-1HAA-T]
2 = DEIAALEAEHAALEAENAALEAEIAALEG [P1-AA-1HAA-H]
q: Of 1 and 2 , which carries the smaller reported interaction score figure? Kindly give the label for the entry you pick.
a: 2
(2: 1.34, 1: 1.93)
